tested on: Northern house mosquitoes (Culex pipiens); assay: Short-term spatial repellency, static air repellency chamber; type: in vivo; conditions: Culex pipiens, 1.5 h; filter paper, 1 mL of 0.5% solution in acetone, air-dried 15 min; 90 min; read-out: Short-term Percentage repellency 90 min
Where a name gives a salt, the structure may show the parent alone.
recorded_metric: pest or weed control at 0.5 % (%)
Your answer is read as %, so omit the unit and give the number.

# example entries with known answers
compound | reported_value
CC(=O)OCCOC(=O)C=Cc1ccccc1 [Compound 1105, 2-acetoxyethyl cinnamate] | 15
CC(C)=CCCC(C)CCOC(=O)C1(C)CCC1 (stereo not shown) [Compound 2106] | 60
CC(C)=CCCC(C)CCOC=O (stereo not shown) [Compound 1089, citronellyl formate] | 92.5

Please state recorded pest or weed control at 0.5 % (tested on Northern house mosquitoes (Culex pipiens)) of CC(C)=CCCC(C)CCOC(=O)CC(F)(F)F (stereo not shown) [Compound 2235, citronellyl 3,3,3-trifluoropropanoate]
62.5

* * *

Listed here: items and their measured pest or weed control at 0.5 %.
tested on: Northern house mosquitoes (Culex pipiens); assay: Long-term spatial repellency, static air repellency chamber, filter papers air-dried 5 hours; assay type: in vivo; details: Culex pipiens, 0.25 h; 1 mL of 0.5% solution in acetone, air-dried 5 hours; 15 min; read-out: Long-term Percentage repellency 15 min
# output: bare number, implied unit %

compound | recorded_metric | reported_value
CC(=O)CCC(=O)OCCC(C)CCC=C(C)C (stereo not shown) [Compound 2183, citronellyl levulinate] | pest or weed control at 0.5 % | 35

Any idea what pest or weed control at 0.5 % was measured for Cc1ccc(C(C)C)c(OC(=O)C2CC2)c1 [Compound 1055A, thymol cyclopropanecarboxylate] ?
0

Record request: pest or weed control at 0.5 % value, item CC(C)=CCCC(C)CC(=O)OCCO (stereo not shown) [Compound 1052S3, 2-hydroxyethyl citronellate]
37.5

What measured pest or weed control at 0.5 % goes with CC(C)=CCCC(C)CCOC(=O)C1CCCC1 (stereo not shown) [Compound 2119, citronellyl cyclopentanecarboxylate] ?
20

* * *

tested on: Northern house mosquitoes (Culex pipiens); assay: Short-term spatial repellency, static air repellency chamber; assay type: in vivo; conditions: Culex pipiens, 1.5 h; filter paper, 1 mL of 0.5% solution in acetone, air-dried 15 min; 90 min; read-out: Short-term Percentage repellency 90 min
Measured pest or weed control at 0.5 % of individual entries
# output: numeric value plus its unit

molecule | target_desc | reported_value
Cc1ccc(C(C)C)c(OC(=O)C(C)(C)F)c1 [Compound 1121A, thymyl 2-fluoroisobutyrate] | Northern house mosquitoes (Culex pipiens) | 97.5%
CC(C)=CCCC(C)CC(=O)OCC1CCC1 (centres unmarked) [Compound 2026, cyclobutylmethyl citronellate] | Northern house mosquitoes (Culex pipiens) | 37.5%
O=C(OC/C=C/c1ccccc1)C1CC1 [Compound 2038, cinnamyl cyclopropanecarboxylate] | Northern house mosquitoes (Culex pipiens) | 57.5%
CC1CCC(C(C)(C)O)C(O)C1 (centres unmarked) [p-menthane-3,8-diol, reference compound] | Northern house mosquitoes (Culex pipiens) | 12.5%

Value wanted: pest or weed control at 0.5 % (Northern house mosquitoes (Culex pipiens)) of entry Cc1ccc(C(C)C)c(OC(=O)C2CCCCC2)c1 [Compound 2085, thymyl cyclohexanecarboxylate]
35%

Give recorded pest or weed control at 0.5 % with Northern house mosquitoes (Culex pipiens) for the following molecule: CC(C)=CCCC(C)CCOC(=O)C(C)(C)F (centres unmarked) [Compound 2208, citronellyl 2-fluoroisobutyrate]
75%

Given the entry CC(C)=CCCC(C)CCOC(=O)c1ccccc1 (centres unmarked) [Compound 2189, citronellyl benzoate] , what pest or weed control at 0.5 % was observed with Northern house mosquitoes (Culex pipiens)?
17.5%

Find pest or weed control at 0.5 % (Northern house mosquitoes (Culex pipiens)) for the entry CC(C)=CCC/C(C)=C\COC(=O)CC(C)C [Compound 2255B, neryl isovalerate]
75%
